tested on: Male NMRI mice; experiment: In vivo inhibition of induced pulmonary emboli (survival after lethal dose of U46619); details: 1 mg/kg by gastric route in 1% methyl cellulose; lethal dose U46619 (800-1000 ug/kg) into tail vein four hours later; survival after 24 hours; groups of 5
value-kind: Survival Rate of Mouse 1 mg/kg, 4 h in % (%)

1) O=C(CC1CCC(CCNS(=O)(=O)c2ccc(Cl)cc2)CC1)Nc1nnn[nH]1 (centres unmarked) [Example 6]: 100
2) O=C(CO[C@H]1CC[C@H](CCNS(=O)(=O)c2ccc(Cl)cc2)CC1)Nc1nnn[nH]1 [4 (trans)]: 60
3) O=C(O)C1CCC(CCNS(=O)(=O)c2ccc(Cl)cc2)CC1 (centres unmarked) [Example 2.1]: 100
4) O=S(=O)(NCCC1CCC(OCc2nn[nH]n2)CC1)c1ccc(Cl)cc1 (centres unmarked) [Example 7]: 100
5) O=C(CO[C@H]1CC[C@@H](CCNS(=O)(=O)c2ccc(Cl)cc2)CC1)Nc1nnn[nH]1 [4 (cis)]: 100
